measured-on: WT STING (Homo sapiens, UniProt Q86WV6, H232R)
Construct: encoded truncated human WT STING or AQ STING (amino acid residues 140-343) with N-terminal 8×His and SUMO tag; 8xHis-SUMO (N, cleaved yes); made in house; host or cells: E. coli Rosetta-gami B (DE3)
Sequence (Q86WV6 140-343 H232R): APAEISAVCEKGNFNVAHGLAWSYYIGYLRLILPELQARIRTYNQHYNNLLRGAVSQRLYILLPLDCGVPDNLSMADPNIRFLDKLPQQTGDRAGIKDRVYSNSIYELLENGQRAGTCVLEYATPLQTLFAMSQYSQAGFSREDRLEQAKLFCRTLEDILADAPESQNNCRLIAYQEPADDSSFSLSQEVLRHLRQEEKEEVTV
test-details: Differential Scanning Fluorimetry (DSF) with WT STING
Format: binding
condition-parameters: thermal shift vs STING apoprotein; 150 μM CDN; 0.1 mg/ml protein; SYPRO Orange
property-name: ΔTm at 150 µM (°C)
Entry rule: numbers only, all in °C.

Any idea what its ΔTm at 150 µM is? The compound is Nc1nc(Cl)c2ncn([C@@H]3O[C@@H]4COP(=O)(O)OC5C(O)[C@H](n6cnc7c(N)ncnc76)O[C@@H]5OCP(=O)(O)OC4C3O)c2n1 (some centres unmarked)
0.4

Which ΔTm at 150 µM value is on record for CSc1nc(N)nc2c1ncn2[C@@H]1O[C@@H]2COP(=O)(O)OC3C(O)[C@H](n4cnc5c(N)ncnc54)O[C@@H]3OCP(=O)(O)OC2C1O (some centres unmarked) ?
0

# query: ΔTm at 150 µM of entry COc1nc(N)nc2c1ncn2[C@@H]1O[C@@H]2COP(=O)(O)OC3C(O)[C@H](n4cnc5c(N)ncnc54)O[C@@H]3OCP(=O)(O)OC2C1O (some centres unmarked)
0.1

Any idea what its ΔTm at 150 µM is? The compound is Nc1ncnc2c1ncn2[C@@H]1O[C@@H]2COP(=O)(O)OC3C(O)[C@H](n4cnc5c(N)ncnc54)O[C@@H]3OCP(=O)(O)OC2C1N (some centres unmarked)
0.1

Entry Nc1ncnc2c1ncn2[C@@H]1O[C@@H]2OCP(=O)(O)OC3C(O)[C@H](n4cnc5c(N)ncnc54)O[C@@H]3COP(=O)(O)OC2C1O (some centres unmarked) [Compound 51] : reported ΔTm at 150 µM = ?
4

----------
measured-on: AQ STING (G230A-R293Q) (Homo sapiens, UniProt Q86WV6, G230A/H232R/R293Q)
Construct: encoded truncated human WT STING or AQ STING (amino acid residues 140-343) with N-terminal 8×His and SUMO tag; 8xHis-SUMO (N, cleaved yes); made in house; host or cells: E. coli Rosetta-gami B (DE3)
Sequence (Q86WV6 140-343 G230A/H232R/R293Q): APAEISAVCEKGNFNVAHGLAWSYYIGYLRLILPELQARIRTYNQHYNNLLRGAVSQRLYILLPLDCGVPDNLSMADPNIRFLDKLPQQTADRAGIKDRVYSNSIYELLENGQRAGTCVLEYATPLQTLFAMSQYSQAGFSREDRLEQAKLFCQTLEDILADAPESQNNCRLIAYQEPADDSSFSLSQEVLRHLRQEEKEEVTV
test-details: Differential Scanning Fluorimetry (DSF) with AQ STING
Assay type: binding
condition-parameters: thermal shift vs STING apoprotein; 150 μM CDN; 0.1 mg/ml protein; SYPRO Orange
So I've got a bunch of molecules here, and I need their ΔTm at 150 µM values.
Include the unit after the number when you answer.

Quick one: ΔTm at 150 µM for Nc1ncnc2c1ncn2[C@@H]1O[C@@H]2OCP(=O)(O)OC3C(O)[C@H](n4cnc5c(N)nc(F)nc54)O[C@@H]3COP(=O)(O)OC2C1O (stereo partly drawn) ?
6.3 °C

Which ΔTm at 150 µM reading was recorded for the molecule Nc1ncc2ncn([C@@H]3O[C@@H]4COP(=O)(O)OC5C(O)[C@H](n6cnc7c(N)ncnc76)O[C@@H]5OCP(=O)(O)OC4C3O)c2n1 (stereo partly drawn) ?
6.6 °C

Return reported ΔTm at 150 µM; argument: Nc1ncnc2c1ncn2[C@@H]1O[C@@H]2OCP(=O)(O)OC3C(O)[C@H](n4cnc5c(N)ncnc54)O[C@@H]3OCP(=O)(O)OC2C1O (stereo partly drawn)
2.5 °C

----------
measured-on: WT STING (Homo sapiens, UniProt Q86WV6, H232R)
Construct: encoded truncated human WT STING or AQ STING (amino acid residues 140-343) with N-terminal 8×His and SUMO tag; 8xHis-SUMO (N, cleaved yes); made in house; host or cells: E. coli Rosetta-gami B (DE3)
test-details: Differential Scanning Fluorimetry (DSF) with WT STING
Type: binding
condition-parameters: thermal shift vs STING apoprotein; 150 μM CDN; 0.1 mg/ml protein; SYPRO Orange
Strictly below 1 °C in ΔTm at 150 µM: True. Otherwise: False.

Quick check: does CNc1ncnc2c1ncn2[C@@H]1O[C@@H]2COP(=O)(O)OC3C(O)[C@H](n4cnc5c(=O)[nH]c(N)nc54)O[C@@H]3OCP(=O)(O)OC2C1O (stereo partly drawn) [Compound 39] have ΔTm at 150 µM under 1 °C?
False

Consider Nc1ncnc2c1ncn2[C@@H]1O[C@@H]2OCP(=O)(O)OC3C(O)[C@H](n4cnc5c(N)nc(F)nc54)O[C@@H]3COP(=O)(O)OC2C1O (stereo partly drawn) [Compound 52] . Does its ΔTm at 150 µM lie strictly below 1 °C?
False

Report whether reported ΔTm at 150 µM is lower than 1 °C (strictly) for Nc1ncnc2c1ncn2[C@@H]1O[C@@H]2OCP(=O)(O)OC3C(O)[C@H](n4cnc5c(N)ncnc54)O[C@@H]3OCP(=O)(O)OC2C1O (stereo partly drawn) [Compound 31]
True

I'd appreciate it if you could check whether Nc1nc2c(ncn2[C@@H]2O[C@@H]3COP(=O)(O)OC4C(O)[C@H](n5cnc6c(N)ncnc65)O[C@@H]4OCP(=O)(O)OC3C2O)c(=O)[nH]1 (stereo partly drawn) [Compound 44] has ΔTm at 150 µM smaller than 1 °C.
False

Consider the compound Nc1ncnc2c1ncn2[C@@H]1O[C@@H]2OCP(=O)(O)OC3C(F)[C@H](n4cnc5c(N)nc(F)nc54)O[C@@H]3COP(=O)(O)OC2C1O (stereo partly drawn) [Compound 53] . Is its ΔTm at 150 µM strictly less than 1 °C?
False

Strictly below 1 °C in ΔTm at 150 µM? Nc1ncnc2c1ccn2[C@@H]1O[C@@H]2COP(=O)(O)OC3C(O)[C@H](n4cnc5c(N)ncnc54)O[C@@H]3OCP(=O)(O)OC2C1O (stereo partly drawn) [Compound 50]
True

Does Nc1nc2c(ncn2[C@@H]2O[C@@H]3OCP(=O)(O)OC4C(O)[C@H](n5cnc6c(N)ncnc65)O[C@@H]4COP(=O)(O)OC3C2O)c(=O)[nH]1 (stereo partly drawn) [Compound 37] have ΔTm at 150 µM strictly under 1 °C?
False

Report whether reported ΔTm at 150 µM is lower than 1 °C (strictly) for Nc1ncnc2c1ncn2[C@@H]1O[C@@H]2OCP(=O)(O)OC3C(O)[C@H](n4cnc5c(N)ncnc54)O[C@@H]3COP(=O)(S)OC2C1O (stereo partly drawn) [Compound 49]
True

State whether 1 °C exceeds ΔTm at 150 µM recorded for CNc1ncnc2c1ncn2[C@@H]1O[C@@H]2COP(=O)(O)OC3C(O)[C@H](n4cnc5c(N)ncnc54)O[C@@H]3OCP(=O)(O)OC2C1O (stereo partly drawn) [Compound 48] .
True

ΔTm at 150 µM strictly < 1 °C for this compound? Nc1nc2c(ncn2[C@@H]2O[C@@H]3COCP(=O)(O)OC4C(F)[C@H](n5cnc6c(N)ncnc65)O[C@@H]4COP(=O)(O)OC3C2O)c(=O)[nH]1 (stereo partly drawn) [Compound 35]
False

Given the entry Nc1ncc2ncn([C@@H]3O[C@@H]4COP(=O)(O)OC5C(O)[C@H](n6cnc7c(N)ncnc76)O[C@@H]5OCP(=O)(O)OC4C3O)c2n1 (stereo partly drawn) [Compound 42] , would its reported ΔTm at 150 µM be below 1 °C?
True

Please let me know if Nc1ncnc2c1ncn2[C@@H]1O[C@@H]2COCP(=O)(O)OC3C(F)[C@H](n4cnc5c(N)ncnc54)O[C@@H]3COP(=O)(O)OC2C1O (stereo partly drawn) [Compound 34] shows ΔTm at 150 µM below 1 °C.
True

----------
measured-on: AQ STING (G230A-R293Q) (Homo sapiens, UniProt Q86WV6, G230A/H232R/R293Q)
Construct: encoded truncated human WT STING or AQ STING (amino acid residues 140-343) with N-terminal 8×His and SUMO tag; 8xHis-SUMO (N, cleaved yes); made in house; host or cells: E. coli Rosetta-gami B (DE3)
test-details: Differential Scanning Fluorimetry (DSF) with AQ STING
Assay type: binding
condition-parameters: thermal shift vs STING apoprotein; 150 μM CDN; 0.1 mg/ml protein; SYPRO Orange
Field: ΔTm at 150 µM. Provide a value for each of the compounds that follow.
The reply should be a number in °C, with the unit left off.

Consider the compound shown here: Nc1ncnc2c1ncn2[C@@H]1O[C@@H]2OCP(=O)(O)OC3C(F)[C@H](n4cnc5c(N)nc(F)nc54)O[C@@H]3COP(=O)(O)OC2C1O (stereo partly drawn) What is its recorded ΔTm at 150 µM?
8.8

Report ΔTm at 150 µM for Nc1nc2c(ccn2[C@@H]2O[C@@H]3COP(=O)(O)OC4C(O)[C@H](n5cnc6c(N)ncnc65)O[C@@H]4OCP(=O)(O)OC3C2O)c(=O)[nH]1 (stereo partly drawn) please.
3.3

If you can, please state the reported ΔTm at 150 µM value of Nc1nc2c(ncn2[C@@H]2O[C@@H]3OCP(=O)(O)OC4C(O)[C@H](n5cnc6c(N)ncnc65)O[C@@H]4COP(=O)(O)OC3C2O)c(=O)[nH]1 (stereo partly drawn) .
15.9
